Target: T1, HEK-TROP2 Δ27-36
T1 construct: also called TROP2 delta 27-36
T1 membrane protein on transfected HEK cells: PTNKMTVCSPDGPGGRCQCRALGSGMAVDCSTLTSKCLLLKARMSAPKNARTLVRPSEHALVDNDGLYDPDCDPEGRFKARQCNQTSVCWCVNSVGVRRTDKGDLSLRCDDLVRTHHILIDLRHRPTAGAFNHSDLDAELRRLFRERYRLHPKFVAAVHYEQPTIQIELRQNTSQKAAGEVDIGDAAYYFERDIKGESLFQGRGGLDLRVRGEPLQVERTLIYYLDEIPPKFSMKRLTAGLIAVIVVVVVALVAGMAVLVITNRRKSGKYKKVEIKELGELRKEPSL
Assay: flow cytometry, 100 nM antibody, transiently transfected HEK cells, APC anti-human Fc
readoutKind: binding result

INSERT INTO measurements (binder, testvalue) VALUES
  ('KD003 (antibody, human IgG1, V domains shown, also called anti-TROP2 sdAb KD003) VH: QVQLQESGGGMVQPGGSLRLSCAASGFTFSNYDMSWVRQAPGKGPEWVSYINAGGSNTDYPDSVKGRFTISRDNAKNMLYLLMNNLKPEDTALYRCARAKLTDTHYVEDYWGQGTQVTVSS', 'binds'),
  ('KD004 (antibody, human IgG1, V domains shown, also called anti-TROP2 sdAb KD004) VH: QVQLQESGGGLVQPGRSLRLSCAASGFTFSGSDMSWVRQAPGKGPEWVSYITGSGTTYYPDSVKGRFTTSRDNAKNMLYLQMNSLKPDDTALYRCAKARLTDSHYVEDAWGQGTQVTVSS', 'binds'),
  ('KD006 (antibody, human IgG1, V domains shown, also called anti-TROP2 sdAb KD006) VH: QVQLQESGGGLVQAGNSLRLSCVASVRTFSTKAMGWFRQAPGKEREFTAAISESGSTYYADSVKDRFTISRDNVKNTVYLQMNSLKPEDTAVYYCGVKWYSGSFDDTRSYDYWGQGTQVTVSS', 'binds');

Origin of values: patent US20240360242A1
